Experiment Description: Stability in human plasma
Type: in vitro ADME
Condition Notes: 2 μM peptidomimetic, pooled human plasma, 37° C., 24 h
Non-standard residues stand in square brackets, D forms with d. Residues, ends and D or L forms follow the SMILES beside them. ξ: configuration not given here. ξBip(2'-Et-4'-OMe) = CCc1cc(OC)ccc1-c1ccc(CC(N)C(=O)O)cc1; ξNva(5-(3-Cl-Ph)) = NC(CCCc1cccc(Cl)c1)C(=O)O
Recorded Metric: % degradation of peptidomimetics in 24 h when incubated with human plasma (%)
Report only the number, with the unit % understood.

1) CCc1cc(OC)ccc1-c1ccc(CC(NC(=S)[C@H](CC(=O)O)NC(=O)[C@H](CO)NC(=O)[C@@H](NC(=O)C(C)(Cc2ccccc2F)NC(=O)[C@@H](NC(=O)CNC(=O)C(CCC#N)NC(=O)C(C)(C)NC(=O)[C@@H](N)Cc2c[nH]cn2)[C@H](C)O)[C@H](C)O)C(=S)NC(CCCc2ccccc2)C(N)=O)cc1 (single isomer, unassigned) | 00

Value of measured % degradation of peptidomimetics in 24 h when incubated with human plasma for the entry CCc1cc(OC)ccc1-c1ccc(CC(NC(=O)[C@H](CC(=O)O)NC(=O)[C@H](CO)NC(=O)[C@@H](NC(=O)[C@H](Cc2ccccc2)NC(=O)[C@@H](NC(=O)CNC(=O)[C@H](CCC(N)=O)NC(=O)[C@H](CO)NC(=O)[C@@H](N)Cc2c[nH]cn2)[C@@H](C)O)[C@@H](C)O)C(=O)NC(CCCc2cccc(Cl)c2)C(N)=O)cc1 (stereo partly drawn) [compound 7] (H-HSQGTFTSD[ξBip(2'-Et-4'-OMe)][ξNva(5-(3-Cl-Ph))]-NH2) : 69

Value of measured % degradation of peptidomimetics in 24 h when incubated with human plasma for the entry CCc1cc(OC)ccc1-c1ccc(CC(NC(=O)[C@H](CC(=O)O)NC(=O)[C@H](CO)NC(=O)[C@@H](NC(=O)C(C)(Cc2ccccc2F)NC(=O)[C@@H](NC(=O)CNC(=O)C(CCC#N)NC(=O)C(C)(C)NC(=O)[C@H](Cc2c[nH]cn2)NC(=O)OC)[C@@H](C)O)[C@@H](C)O)C(=O)NC(CCCc2ccccc2F)C(N)=O)cc1 (single isomer, unassigned) : 78

----------
Experiment Description: Stability in liver microsomes
Type: in vitro ADME
Condition Notes: 2 μM peptidomimetic, human liver microsomes, 37° C.
Protocol: Reactions were terminated by the addition of TFA/H2O (15 mL, 10% (v/v)). […] The column was equilibrated with TFA/H20, at a flow rate of 1 mL/min.
Non-standard residues stand in square brackets, D forms with d. Residues, ends and D or L forms follow the SMILES beside them. ξ: configuration not given here. *: point of attachment. X3 = CCc1cc(OC)ccc1-c1ccc(CC(N*)C(=S)NC(CCCc2ccccc2)C(N)=O)cc1; Leu(5,5,5,5',5',5'-F6) = N[C@@H](CC(C(F)(F)F)C(F)(F)F)C(=O)O; ξαMePhe(2-F) = CC(N)(Cc1ccccc1F)C(=O)O; aThr = C[C@H](O)[C@H](N)C(=O)O; Aib = CC(C)(N)C(=O)O
Recorded Metric: half-life (t1/2) when incubated with liver microsomes

1) CCc1cc(OC)ccc1-c1ccc(CC(NC(=O)[C@H](CC(=O)O)NC(=O)[C@H](CO)NC(=O)[C@@H](NC(=O)C(C)(Cc2ccccc2F)NC(=O)[C@@H](NC(=O)CNC(=O)[C@H](CC(C(F)(F)F)C(F)(F)F)NC(=O)C(C)(C)NC(=O)[C@@H](N)Cc2c[nH]cn2)[C@H](C)O)[C@H](C)O)C(=S)NC(CCCc2ccccc2)C(N)=O)cc1 (stereo partly shown) [compound 219] (H-H[Aib][Leu(5,5,5,5',5',5'-F6)]G[aThr][ξαMePhe(2-F)][aThr]SD-X3) | (5) h

----------
Measured On: Human GLP-1 receptor (Homo sapiens, UniProt P43220)
Construct: The full-length cDNA was cloned in pcDNA3.1(+); expressed in transfected cells
Sequence (P43220 24-463): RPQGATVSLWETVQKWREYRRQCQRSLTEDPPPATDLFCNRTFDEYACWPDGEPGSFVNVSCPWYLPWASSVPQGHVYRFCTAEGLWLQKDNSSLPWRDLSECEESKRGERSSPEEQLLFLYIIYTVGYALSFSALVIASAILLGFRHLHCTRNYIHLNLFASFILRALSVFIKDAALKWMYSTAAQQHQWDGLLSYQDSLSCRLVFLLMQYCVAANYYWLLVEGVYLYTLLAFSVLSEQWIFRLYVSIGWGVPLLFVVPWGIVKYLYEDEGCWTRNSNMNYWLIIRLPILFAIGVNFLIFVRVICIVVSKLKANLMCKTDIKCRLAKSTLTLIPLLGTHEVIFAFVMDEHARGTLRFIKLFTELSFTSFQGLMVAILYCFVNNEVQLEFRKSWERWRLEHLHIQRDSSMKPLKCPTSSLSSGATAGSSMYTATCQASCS
Experiment Description: In vitro Human GLP-1 R agonist activity (cyclic AMP determination) in CHO/human GLP1R cells
Type: cell-based
Condition Notes: 100 nM test compound
Recorded Metric: Human GLP-1 R activity (cAMP release), % activity with respect to control (%)
Report only the number, with the unit % understood.

1) CCc1cc(OC)ccc1-c1ccc(CC(NC(=O)[C@H](CC(=O)O)NC(=O)[C@H](CO)NC(=O)[C@@H](NC(=O)C(C)(Cc2ccccc2)NC(=O)[C@@H](NC(=O)CNC(=O)[C@H](CC(C(F)(F)F)C(F)(F)F)NC(=O)C(C)(C)NC(=O)[C@@H](N)Cc2c[nH]cn2)[C@@H](C)O)[C@@H](C)O)C(=O)NC(CCCc2ccccc2)C(N)=O)cc1 (single isomer, unassigned) [compound 230] | 99
2) CCc1cc(OC)ccc1-c1ccc(CC(NC(=O)[C@H](CC(=O)O)NC(=O)[C@H](CO)NC(=O)[C@@H](NC(=O)C(C)(Cc2ccccc2F)NC(=O)[C@@H](NC(=O)CNC(=O)C(CCC#N)NC(=O)C(C)(C)NC(=O)[C@@H](N)Cc2c[nH]cn2)[C@H](C)O)[C@H](C)O)C(=O)N(C)C(CCCc2ccccc2)C(N)=O)cc1 (single isomer, unassigned) [compound 130] | 89

Please look at the following compound next.
Considering CCc1cc(OC)ccc1-c1ccc(CC(NC(=S)[C@H](CC(=O)O)NC(=O)[C@H](CO)NC(=O)[C@@H](NC(=O)C(C)(Cc2ccccc2F)NC(=O)[C@@H](NC(=O)CNC(=O)C(CCC#N)NC(=O)C(C)(C)NC(=O)[C@@H](N)Cc2c[nH]cn2)[C@H](C)O)[C@H](C)O)C(=S)NC(CCCc2ccccc2F)C(N)=O)cc1 (single isomer, unassigned) [compound 180] , its Human GLP-1 R activity (cAMP release), % activity with respect to control with Human GLP-1 receptor (Homo sapiens, UniProt P43220) was recorded as 89

----------
Experiment Description: Stability in simulated intestinal fluid
Format: in vitro ADME
Condition Notes: 2 μM peptidomimetic, simulated intestinal fluid pH 7.5, 37° C.
Recorded Metric: half-life (t1/2) when incubated with simulated intestinal fluid

1) CCc1cc(OC)ccc1-c1ccc(CC(C(=O)N(C)C(CCCc2ccccc2)C(N)=O)N(C)C(=O)[C@H](CC(=O)O)N(C)C(=O)[C@H](CO)NC(=O)[C@@H](NC(=O)C(C)(Cc2ccccc2F)NC(=O)[C@@H](NC(=O)CNC(=O)C(CCC#N)NC(=O)C(C)(C)NC(=O)[C@@H](N)Cc2c[nH]cn2)[C@H](C)O)[C@H](C)O)cc1 (single isomer, unassigned) [compound 154] | (6) h
2) CCc1cc(OC)ccc1-c1ccc(CC(NC(=O)[C@H](CC(=O)O)NC(=O)[C@H](CO)NC(=O)[C@@H](NC(=O)[C@H](Cc2ccccc2)NC(=O)[C@@H](NC(=O)CNC(=O)[C@H](CCC(N)=O)NC(=O)C2(NC(=O)[C@@H](N)Cc3c[nH]cn3)CC2)[C@@H](C)O)[C@@H](C)O)C(=O)NC(CCCc2ccc(F)cc2F)C(N)=O)cc1 (single isomer, unassigned) [compound 70] | (6) h

----------
Experiment Description: Stability in liver microsomes
Type: in vitro ADME
Condition Notes: pH 7.8; 2 μM peptidomimetic, human liver microsomes, 37° C.; read-out: half-life (t1/2) when incubated with liver microsomes
Known half-life at 2 μM of a selection of compounds

Consider the reported half-life at 2 μM for these compounds:
1. CCc1cc(OC)ccc1-c1ccc(CC(NC(=O)[C@H](CC(=O)O)NC(=O)[C@H](CO)NC(=O)[C@@H](NC(=O)C(C)(Cc2ccccc2F)NC(=O)[C@@H](NC(=O)CNC(=O)C(CCC#N)NC(=O)C(C)(C)NC(=O)[C@@H](N)Cc2c[nH]cn2)[C@H](C)O)[C@@H](C)O)C(=O)NC(CCCc2ccccc2F)C(N)=O)cc1 (single isomer, unassigned) | 2 h
2. CCc1cc(OC)ccc1-c1ccc(CC(CNC(CCCc2ccccc2)C(N)=O)NC(=O)[C@H](CC(=O)O)NC(=O)[C@H](CO)NC(=O)[C@@H](NC(=O)C(C)(Cc2ccccc2F)NC(=O)[C@@H](NC(=O)CNC(=O)C(CCC#N)NC(=O)C(C)(C)NC(=O)[C@@H](N)Cc2c[nH]cn2)[C@H](C)O)[C@H](C)O)cc1 (single isomer, unassigned) | 2 h

Please look at the following compound next.
Value of measured half-life at 2 μM for the entry CCc1cc(OC)ccc1-c1ccc(CC(NC(=O)[C@H](CC(=O)O)NC(=O)[C@H](CO)NC(=O)[C@@H](NC(=O)[C@H](Cc2ccccc2)NC(=O)[C@@H](NC(=O)CNC(=O)[C@H](CCC(N)=O)NC(=O)[C@H](CO)NC(=O)[C@@H](N)Cc2c[nH]cn2)[C@@H](C)O)[C@@H](C)O)C(=O)NC(CCCc2ccccc2F)C(N)=O)cc1 (single isomer, unassigned) : 0.5 h
